tgt: Muscarinic acetylcholine receptor M1 (Rattus norvegicus)
assayNotes: antagonists of rat M1 muscarinic receptor (AID 628)
protocolConditions: CHO-M1 cells, Fluo-4 calcium, ACh EC80 antagonist mode; at 10 µM
Among all 64,000 compounds or so, about 2,200 (3.4%) were called active.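 How the source made its calls: active means calcium fluorescence response, raw or row-and-column corrected B-score, differing from the plate sample mean either way at a set confidence level, mostly lower; inactive means the rest.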 For the sample, actives were picked, then their nearest neighbours and some compounds at random.
Outcomes you can answer with include only these: active, inactive

compound=O=C(CSc1nnc(-c2cccs2)n1Cc1ccco1)c1ccc2c(c1)OCO2 tgt="Muscarinic acetylcholine receptor M1 (Rattus norvegicus)" assignedcategory=inactive
compound=O=C(CCN1C(=O)c2ccccc2C1=O)Nc1ccncc1 tgt="Muscarinic acetylcholine receptor M1 (Rattus norvegicus)" assignedcategory=inactive

Inquiry: What was the test verdict on Cc1ccccc1OCC(=O)Nc1ccc(N2CCN(C(=O)C(C)C)CC2)c(Cl)c1 ?
Reply text: inactive

Inquiry: Fill in: this test's call for CCN1CCCC1CNC(=O)c1cc2c(=O)n(C)c3ccccc3c2n1C (centres undefined) is ___
Reply text: inactive

Inquiry: Can you look up the reported call for N#Cc1c(NC(=O)CCCN2C(=O)c3ccccc3C2=O)oc(-c2ccccc2)c1-c1ccccc1 for me?
Reply text: active

Inquiry: # fetch the recorded call for CC1CCCC(C)N1CCCNC(=O)c1cc2c(=O)n(C)c3ccccc3c2n1C (centres undefined) here
Reply text: active

Inquiry: GET /call?item= COc1cc(-c2noc(C3CCCN(S(=O)(=O)c4cccc(Cl)c4)C3)n2)cc(OC)c1OC (centres undefined) returns the recorded outcome of this test.
Reply text: inactive

Inquiry: Status in this test for CN1CCN(c2ccc(NC(=O)COc3ccc(Cl)cc3Cl)cc2)CC1 ?
Reply text: active

Inquiry: In this assay, the call recorded for O=C(Cc1cccs1)N1CCCC(c2nc(-c3ccc(S(=O)(=O)N4CCCC4)cc3)no2)C1 (centres undefined) was what?
Reply text: active

###

tgt: Muscarinic acetylcholine receptor M1 (Rattus norvegicus) (UniProt P08482)
Sequence (P08482 whole entry, looked up): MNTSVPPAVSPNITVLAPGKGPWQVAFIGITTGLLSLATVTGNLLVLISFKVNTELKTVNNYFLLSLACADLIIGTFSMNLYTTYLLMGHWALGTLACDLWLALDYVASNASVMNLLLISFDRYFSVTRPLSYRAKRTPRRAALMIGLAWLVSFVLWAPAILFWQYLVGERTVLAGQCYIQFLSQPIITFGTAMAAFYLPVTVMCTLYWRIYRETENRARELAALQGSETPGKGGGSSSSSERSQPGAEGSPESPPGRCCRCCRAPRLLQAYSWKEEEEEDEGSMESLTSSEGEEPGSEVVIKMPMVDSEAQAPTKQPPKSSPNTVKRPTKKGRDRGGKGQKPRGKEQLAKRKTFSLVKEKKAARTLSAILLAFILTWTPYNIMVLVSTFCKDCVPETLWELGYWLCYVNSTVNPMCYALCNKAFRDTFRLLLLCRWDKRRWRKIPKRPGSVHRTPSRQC
assayNotes: antagonists of rat M1 muscarinic receptor (AID 628)
protocolConditions: CHO-M1 cells, Fluo-4 calcium, ACh EC80 antagonist mode; at 10 µM
Hit rate of the full screen: of about 64,000 compounds, about 2,200 (3.4%) were called active.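 How the source made its calls: active means calcium fluorescence response, raw or row-and-column corrected B-score, differing from the plate sample mean either way at a set confidence level, mostly lower; inactive means the rest.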 What follows is part of a selection rich in actives, with near analogues and random picks from the rest.
Response enum: 1 (yes) for active, 0 (no) for inactive

compound="CCc1ccc(N2CC(C(=O)NC3=NCCS3)CC2=O)cc1 (stereo unspecified)" assignedcategory="0 (no)"
compound=O=C1c2ccncc2C(=O)N1C1CCCCC1 assignedcategory="0 (no)"
compound=CC(=O)CSc1nnc(CSc2ncccn2)n1C1CCCCC1 assignedcategory="0 (no)"
compound=O=C(CN1CCN(C2CCCCC2)CC1)Nc1ccccc1N1CCCCC1 assignedcategory="0 (no)"

Inquiry: Each compound tested received a call. Report the one for CCOC(=O)C1CCN(C(=O)C2CCN(S(=O)(=O)N3CCCC3)CC2)CC1 .
Reply text: 0 (no)

Inquiry: Please indicate how the test categorized CC(Nc1nc(N2CCCC2)nc2ccccc12)c1ccccc1 (stereo unspecified) .
Reply text: 0 (no)

Inquiry: Could you kindly confirm the outcome this assay logged for O=C(NC1=NCCS1)c1ccc(Cl)s1 ?
Reply text: 1 (yes)

###

tgt: Muscarinic acetylcholine receptor M1 (Rattus norvegicus) (UniProt P08482)
assayNotes: antagonists of rat M1 muscarinic receptor (AID 628)
protocolConditions: CHO-M1 cells, Fluo-4 calcium, ACh EC80 antagonist mode; at 10 µM
The campaign covered roughly 64,000 compounds. About 2,200 (3.4%) were called active.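 The calls were made as follows: active = calcium fluorescence response, raw or row-and-column corrected B-score, differing from the plate sample mean either way at a set confidence level, mostly lower; inactive = the rest.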 For the sample, actives were picked, then their nearest neighbours and some compounds at random.
Pick one and only one: 1 (active), -1 (inactive)

compound=Cc1ccc(S(=O)(=O)Cn2nnnc2CN2CCN(Cc3ccc4c(c3)OCO4)CC2)cc1 tgt="Muscarinic acetylcholine receptor M1 (Rattus norvegicus) (UniProt P08482)" assignedcategory=-1
compound=COC(=O)C1=CN(C)C=C(C(=O)OC)C1c1ccc(Cl)cc1Cl tgt="Muscarinic acetylcholine receptor M1 (Rattus norvegicus) (UniProt P08482)" assignedcategory=-1
compound=Cc1nc2ccccc2c2oc(C(=O)NCCCN3CCC(C)CC3)cc12 tgt="Muscarinic acetylcholine receptor M1 (Rattus norvegicus) (UniProt P08482)" assignedcategory=1

Inquiry: // return assay outcome for CCOc1cc(C(=S)N2CCOCC2)ccc1O
Reply text: -1

Inquiry: Short answer needed: outcome of this test for Cc1ncc(CC(=O)n2cc(C(=O)c3cc(Cl)ccc3O)cn2)s1 ?
Reply text: -1

###

tgt: Muscarinic acetylcholine receptor M1 (Rattus norvegicus)
assayNotes: antagonists of rat M1 muscarinic receptor (AID 628)
protocolConditions: CHO-M1 cells, Fluo-4 calcium, ACh EC80 antagonist mode; at 10 µM; hits give low values
About 2,200 (3.4%) of roughly 64,000 compounds were called active. This is one part of a sample in which actives are shown more often than they occur.
quantityMeasured: B-score
Respond using a number only.

Example cases with answers are listed next.
molecule=COc1ccccc1OCCC(=O)OCC(=O)NC(=O)NC(C)(C)C measuredvalue=-0.989
molecule="Cc1cc(=O)n2nc(N3CCCC(C(=O)N4CCN(C)CC4)C3)sc2n1 (stereo not given)" measuredvalue=-0.192
molecule="Cc1ccccc1N1C(=O)C2ON(c3ccccc3)C(c3ccncc3)C2C1=O (stereo not given)" measuredvalue=-0.292
molecule=O=S(=O)(O)c1nc2ccccc2n1Cc1ccc(Cl)cc1 measuredvalue=0.456
molecule="CCCc1[nH]nc2c1C(c1ccc(Br)s1)C(C#N)=C(N)O2 (stereo not given)" measuredvalue=0.255

Value of B-score reported for the molecule Cc1ccc(S(=O)(=O)C(C#N)c2nc3ccccc3nc2N2CCCC2)cc1C (stereo not given) is 0.0971

Lab note: CCOC(=O)N1CCN(C(=O)C2CC(c3ccc(F)cc3)=NO2)CC1 (stereo not given) gave B-score of 1.56

Reported B-score for Cc1ccccc1C(OCC(O)CN1CCCCC1CCO)c1ccccc1 (stereo not given) was -3.65

Per the records, this molecule ( Cc1cc(NC(=O)CCC2COc3ccccc3O2)no1 (stereo not given) ) has B-score equal to -0.711

The molecule listed as CCOC(=O)C1CCCN(C(=O)C2CCN(c3nnc(-n4cccc4)s3)CC2)C1 (stereo not given) shows B-score equal to -0.147

The reported value for N#CCCN1CCN(S(=O)(=O)c2ccc(S(=O)(=O)N3CCCC3)cc2)CC1 in terms of B-score is -0.0175

Short answer for COc1ccc(N2C(=O)c3cccc4cccc(c34)C2=O)nn1 : B-score was 0.203

Data point: C=C(Br)Cn1c(CCCC)nc2ccccc21 ; B-score = 0.344

Entry CCOC(=O)c1c(NC(=O)CSc2nnc(CN3CCOCC3)n2C)sc2c1CCCC2 ; B-score = -2.5

Record Cc1cc(C)n(-c2nc(SCC(=O)N3CCCC3)c3c4c(sc3n2)CCCC4)n1 , field B-score: -2.83

Quick note, B-score for COC(=O)c1c(NC(=O)CCN2CCOCC2)sc2c1CCCC2 landed at 0.415

###

tgt: Muscarinic acetylcholine receptor M1 (Rattus norvegicus) (UniProt P08482)
assayNotes: antagonists of rat M1 muscarinic receptor (AID 628)
protocolConditions: CHO-M1 cells, Fluo-4 calcium, ACh EC80 antagonist mode; at 10 µM
Out of some 64,000 compounds screened, about 2,200 (3.4%) were called active.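 The calls were made as follows: active = calcium fluorescence response, raw or row-and-column corrected B-score, differing from the plate sample mean either way at a set confidence level, mostly lower; inactive = the rest.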 The full list was thinned out, with actives kept by preference.
Respond with a class label; see Y for active, N for inactive

compound=COc1ccc(C(=O)NCCc2ccc(S(N)(=O)=O)cc2)cc1OC assignedcategory=N

Inquiry: Could you check what this test reported for O=C(NCc1ccc(Cl)cc1)c1cc2c(nc3sccn32)s1 ?
Reply text: N

Inquiry: # lookup: test call for Fc1ccc2[nH]c3c(N4CCSCC4)ncnc3c2c1
Reply text: Y

Inquiry: Field: outcome | Entry: COc1cc2cc(CN(CCN3CCCC3)C(=O)Nc3ccccc3Cl)c(=O)[nH]c2cc1OC
Reply text: N

Inquiry: Just curious, what result did CC(=O)OC(C(=O)NC1CCCCC1)c1ccccc1 (stereo not given) get here?
Reply text: N

Inquiry: Per the records of this test, what outcome belongs to CN(C)CCSc1nc(N)c2c3c(sc2n1)COC(C)(C)C3 ?
Reply text: N

###

tgt: Muscarinic acetylcholine receptor M1 (Rattus norvegicus)
assayNotes: antagonists of rat M1 muscarinic receptor (AID 628)
protocolConditions: CHO-M1 cells, Fluo-4 calcium, ACh EC80 antagonist mode; at 10 µM
The whole screen tested about 64,000 compounds, of which about 2,200 (3.4%) were called active.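 The calls were made as follows: active = calcium fluorescence response, raw or row-and-column corrected B-score, differing from the plate sample mean either way at a set confidence level, mostly lower; inactive = the rest.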 The entries come from a sample that favours actives as a whole.
Valid outcomes are listed here; reply with one: active, inactive

Some solved entries appear below for comparison.
compound=O=C(CSc1nnnn1-c1ccc2c(c1)CCC2)Nc1ccc2c(c1)OCCO2 assignedcategory=inactive
compound=CCCOc1ccc2c3c(c(=O)oc2c1OCCC)CCC3 assignedcategory=inactive
compound="O=C(NCCCN1CCCCCC1)C1CC(=O)N(C2CCCC2)C1 (stereo unspecified)" assignedcategory=active
compound=Cc1c(C)c2cc3c4c(oc3c(C)c2oc1=O)CCCC4 assignedcategory=active
compound=N#Cc1c2c(c(-c3ccccc3)[nH]c1=O)CCCC2 assignedcategory=inactive

Now for a further compound.
Inquiry: # outcome recorded in this test, key = O=C(NCCc1ccc(Cl)cc1)C1CC(=O)N(C2CCCCC2)C1 (stereo unspecified)
Reply text: inactive
